Assayed Target: recombinant purified human EHMT2 913-1193 (Homo sapiens)
Construct: Recombinant purified human EHMT2 913-1193 (55 μM) synthesized by Viva was used for all experiments; purchased Viva
Sequence (Q96KQ7 913-1193): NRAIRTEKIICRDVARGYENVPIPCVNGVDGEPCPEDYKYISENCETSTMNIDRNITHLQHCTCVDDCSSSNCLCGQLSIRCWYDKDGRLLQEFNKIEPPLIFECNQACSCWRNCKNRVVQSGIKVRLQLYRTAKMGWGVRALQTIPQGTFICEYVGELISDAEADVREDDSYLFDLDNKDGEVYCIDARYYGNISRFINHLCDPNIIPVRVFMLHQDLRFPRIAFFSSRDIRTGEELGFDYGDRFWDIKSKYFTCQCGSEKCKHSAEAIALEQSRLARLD
Assay Procedure: EHMT2 enzyme assay on histone peptide substrate (3H-SAM Flashplate)
Assay type: biochemical
Experimental Conditions: read-out: EHMT2 PEP (IC50 μM)
Entries and their IC50

Sample records with IC50:
Compound	IC50
CNc1cc(C)nc(Nc2cccc(C(=O)Nc3cccnc3)c2)n1	> 10 µM
CNc1cc(C)nc(Nc2ccc(OC)c(-n3cc(CN(C)C)cn3)c2)n1	< 0.1 µM
CNc1cc(C2CCOCC2)c2cc(OC)c(-n3cc(C4CCCN4)nn3)cc2n1 (stereo not drawn)	0.1 to 1 µM
CNc1cc(C)nc(Nc2ccc(OC)c(-n3ncc4c3CN(C(C)=O)CC4)c2)n1	> 10 µM
CNc1cc(C)nc(Nc2ccc(OC)c(-n3cc4c(n3)CCOC4)c2)n1	> 10 µM
CNc1cc(C)nc(Nc2ccc(OC)c(-c3cc4cnccc4[nH]3)c2)n1	0.1 to 1 µM
CNc1cc(C)nc(Nc2ccc(OC)c(-n3cc(CN(C)C)nn3)c2)n1	0.1 to 1 µM
CNCc1cnn(-c2cc(Nc3nc(C)cc(NC)n3)ccc2OC)c1	< 0.1 µM
CNc1cc(C)nc(Nc2ccc(OC)c(-c3nnc4n3CCN(C)C4)c2)n1	> 10 µM
CNc1ccnc(Nc2ccc(OC)c(-n3cc(CNC4CCC4)nn3)c2)n1	1 to 10 µM

Record CNc1cc(C)nc(Nc2ccc(C)c(-c3[nH]c4cnccc4c3C#N)c2)n1 , field IC50: 1 to 10 µM

Record COc1cc(NC2CCNC2)ccc1-c1[nH]c2cnccc2c1C (stereo not drawn) , field IC50: 0.1 to 1 µM

Record CNc1cc(C)nc(Nc2ccc(OC)c(-n3cc(CN)cn3)c2)n1 , field IC50: < 0.1 µM

Record CNc1cc(C)nc(Nc2ccc(OC)c(-n3cc4c(n3)CCN(C3CC3)C4)c2)n1 , field IC50: 0.1 to 1 µM

Record CNc1cc(C)nc(Nc2ccc(OC)c(-n3cc([C@@H]4CCCN4)nn3)c2)n1 , field IC50: < 0.1 µM

Record CNc1cc(C)nc(Nc2ccc(OC)c(-n3cc(C4CC4)cn3)c2)n1 , field IC50: 1 to 10 µM

Record CCc1ccc(Nc2nc(C)cc(NC)n2)cc1C(=O)Nc1cccnc1 , field IC50: > 10 µM

Record CNc1nc2cc(-n3cc(CN(C)C)nn3)c(OC)cc2n1C , field IC50: 1 to 10 µM

###

Assayed Target: recombinant purified human EHMT2 913-1193 (Homo sapiens)
Construct: Recombinant purified human EHMT2 913-1193 (55 μM) synthesized by Viva was used for all experiments; purchased Viva
Assay Procedure: EHMT2 enzyme assay on histone peptide substrate (3H-SAM Flashplate)
Assay type: biochemical
Experimental Conditions: read-out: EHMT2 PEP (IC50 μM)
Experimental Endpoint: IC50

Sample records with IC50:
Compound	IC50
CNc1cc(C)nc(Nc2ccc(OC)c(-n3cnc(CN(C)C)n3)c2)n1 [Compound 61]	> 10 µM
CNc1cc(C)nc(Nc2ccc(OC)c(-n3nccc3CN)c2)n1 [Compound 24]	1 to 10 µM

Record CNC(=O)N1CC(CNc2cc(C)nc(Nc3ccc(OC)c(-n4cc5c(n4)CCN(C)C5)c3)n2)C1 [Compound 88] , field IC50: 0.1 to 1 µM

Record CNCc1cnn(-c2cc(Nc3nc(C)cc(NC)n3)ccc2Cl)c1 [Compound 262] , field IC50: < 0.1 µM

Record COc1cc(NC2CCNCC2)ccc1-c1cc2[nH]ccc2cn1 [Compound 231] , field IC50: 1 to 10 µM

Record CNc1cc(-c2cc(Nc3nc(C)cc(NC)n3)ccc2OC)ncn1 [Compound 225] , field IC50: 1 to 10 µM

Record CNC(=O)c1c(C)nn(-c2cc(Nc3nc(C)cc(NC)n3)ccc2OC)c1C [Compound 105] , field IC50: > 10 µM
